Value source: patent US6821980B1

- system_name: purified DHFR of strain Sp1/1 of Streptococcus pneumoniae (Streptococcus pneumoniae serotype 4)
- Assay type: biochemical
property_measured: IC50
Reply with the number, then its unit.

Sure, the documented IC50 for CCOc1cc(Cc2cnc(N)nc2N)cc(OCC)c1-n1cccc1 [Epiroprim, reference compound] is 190 nM

* * *

- system_name: purified DHFR of strain Sp1/1 of Streptococcus pneumoniae (Streptococcus pneumoniae serotype 4, UniProt Q54801)
- Sequence (Q54801 whole entry I100L, form open): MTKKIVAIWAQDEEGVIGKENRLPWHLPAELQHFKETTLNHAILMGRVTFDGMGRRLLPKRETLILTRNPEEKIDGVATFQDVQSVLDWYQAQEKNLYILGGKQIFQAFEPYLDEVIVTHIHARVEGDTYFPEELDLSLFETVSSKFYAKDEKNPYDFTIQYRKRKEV
- Type: biochemical
- applied_conditions: Table 2; IC50 against purified DHFR of strain Sp1/1
Response field label: string, one of Criterion met (IC50 strictly below 0.04 µM) or Criterion not met.

Take a look at these entries with their results.
>  <sample_smiles>
CCOc1cc(Cc2cnc(N)nc2N)cc(OS(=O)(=O)CC)c1-c1ccc2c(c1)OCO2

>  <assigned_category>
Criterion met

$$$$
>  <sample_smiles>
CCOc1cc(Cc2cnc(N)nc2N)cc(OCC)c1-c1ccc2c(c1)NCCO2

>  <assigned_category>
Criterion met

$$$$
>  <sample_smiles>
CCOc1cc(Cc2cnc(N)nc2N)cc(OCCC2CCOCC2)c1-c1ccc(O)cc1

>  <assigned_category>
Criterion met

$$$$
>  <sample_smiles>
CCOc1cc(Cc2cnc(N)nc2N)cc(OS(=O)(=O)N(C)C)c1-c1ccc(CN2CCOCC2)c(N)c1

>  <assigned_category>
Criterion met

$$$$
>  <sample_smiles>
CCOc1cc(Cc2cnc(N)nc2N)cc(OCC(C)C)c1-c1ccc(O)cc1

>  <assigned_category>
Criterion met

$$$$

Hello, is IC50 of the following compound strictly smaller than 0.04 µM? CCOc1cc(Cc2cnc(N)nc2N)cc(OCC2CC2)c1-c1ccc(N)cc1
Criterion met

Report whether reported IC50 is lower than 0.04 µM (strictly) for CCOc1cc(Cc2cnc(N)nc2N)cc(OCCc2ccccn2)c1-c1cccc(N)c1
Criterion met

In the record for CCOc1cc(Cc2cnc(N)nc2N)cc(OCC2CC2)c1-c1ccc(OS(C)(=O)=O)cc1 , is IC50 less than 0.04 µM?
Criterion met

Find out if reported IC50 for CCCS(=O)(=O)Oc1cc(Cc2cnc(N)nc2N)cc(OCC)c1-c1ccc(F)c(N)c1 is less than 0.04 µM
Criterion met

IC50 strictly < 0.04 µM for this compound? CCOc1cc(Cc2cnc(N)nc2N)cc(OS(=O)(=O)CC(C)(C)OC)c1-c1ccc(N)c(F)c1
Criterion met

Field: below-cutoff. Rule: recorded IC50 strictly less than 0.04 µM. Subject: CCOc1cc(Cc2cnc(N)nc2N)cc(OCC(C)C)c1-c1ccc(OC)cc1
Criterion not met

Is the reported IC50 for CCOc1cc(Cc2cnc(N)nc2N)cc(OS(=O)(=O)N(C)C)c1-c1cc(N)cc(F)c1 strictly below 0.04 µM?
Criterion met
